System: Fibroblast
Assay: Incucyte cell viability with human fibroblast; also: filed as whole numbers so only -1 and 0 and 1 occur
Format: toxicity, cell-based
Conditions: 24 h, 10 µM, compound concentration 10 uM, replicate number 2, timepoint 24 hours
Readout Name: Growth Rate
Could you respond with only the numeric value?

Below, 5 compounds whose answers are already recorded.
Compound	Growth Rate
Cl.Oc1ccc2c3c1O[C@H]1c4[nH]c5c(c4C[C@@]4(O)[C@@H](C2)N(CC2CC2)CC[C@]314)C[C@@]1(O)[C@H]2Cc3ccc(O)c4c3[C@@]1(CCN2CC1CC1)[C@H]5O4	1
O=C(Nc1cccnn1)N1CCC(=Cc2cccc(Oc3ccc(C(F)(F)F)cn3)c2)CC1	1
Nc1cc(F)ccc1NC(=O)/C=C/c1cnn(C/C=C/c2ccccc2)c1	0
CC(C)(C(=O)O)c1ccc(C(O)CCCN2CCC(C(O)(c3ccccc3)c3ccccc3)CC2)cc1.Cl (stereo unspecified) [FEXOFENADINE HYDROCHLORIDE]	1
CCOc1cc(C(=O)N2CCC(N3CCN(C)CC3)CC2)ccc1Nc1ncc2c(n1)N(C1CCCC1)c1ccccc1C(=O)N2C	1

Provide value of Growth Rate for this record tested with Fibroblast: `CCCCCCCCCCCCCCCCOC[C@H](COP(=O)([O-])OCC[N+](C)(C)C)OC(C)=O` 0

Provide value of Growth Rate for this record tested with Fibroblast: `Cn1cc(CCn2cnc(-c3cnn(C)c3)c2-c2ccc(C#N)cc2)cn1` 0

Provide value of Growth Rate for this record tested with Fibroblast: N[C@@H](Cc1cc(I)c(Oc2ccc(O)c(I)c2)c(I)c1)C(=O)O [LIOTHYRONINE] 1

Provide value of Growth Rate for this record tested with Fibroblast: `CCc1cccc(CC)c1NC(=O)c1nn(C)c2c1CCc1cnc(Nc3ccc(C(=O)NC4CCN(C)CC4)cc3OC(F)(F)F)nc1-2` 1

Provide value of Growth Rate for this record tested with Fibroblast: O=C1O[C@]2(CC[C@H](C(=O)Nc3ccn(-c4ccccc4F)n3)CC2)c2cnccc21 [MK-0557] 1

Provide value of Growth Rate for this record tested with Fibroblast: CNC(=O)c1ccccc1Nc1cc(Nc2ccc(N3CCOCC3)cc2OC)ncc1C(F)(F)F [VS-4718] 1

Provide value of Growth Rate for this record tested with Fibroblast: C=CC(=O)N1CCC([C@@H]2CCNc3c(C(N)=O)c(-c4ccc(Oc5ccccc5)cc4)nn32)CC1 [ZANUBRUTINIB] 1

Provide value of Growth Rate for this record tested with Fibroblast: `NS(=O)(=O)c1c(Cl)ccc(NC(=O)Nc2cccc(Cl)c2Cl)c1O` 0

Provide value of Growth Rate for this record tested with Fibroblast: O=S(=O)(NC1CCC(c2cc(F)ccc2F)(S(=O)(=O)c2ccc(Cl)cc2)CC1)C(F)(F)F (stereo unspecified) [MRK-560] 0

Provide value of Growth Rate for this record tested with Fibroblast: O=C1NCN(c2ccccc2)C12CCN(CC1COc3ccccc3O1)CC2 (stereo unspecified) [SPIROXATRINE] 0

Provide value of Growth Rate for this record tested with Fibroblast: CC(C)C[C@H](CO)Nc1nc(S[C@@H](C)c2ccccc2)nc2nc(N)sc12 [AZD-8797] 1

Value source: ChEMBL document CHEMBL4689842
